Cited source for all entries: patent US12454509B2

- assayed target: UniProt:Q14524
- Sequence (Q14524 whole entry): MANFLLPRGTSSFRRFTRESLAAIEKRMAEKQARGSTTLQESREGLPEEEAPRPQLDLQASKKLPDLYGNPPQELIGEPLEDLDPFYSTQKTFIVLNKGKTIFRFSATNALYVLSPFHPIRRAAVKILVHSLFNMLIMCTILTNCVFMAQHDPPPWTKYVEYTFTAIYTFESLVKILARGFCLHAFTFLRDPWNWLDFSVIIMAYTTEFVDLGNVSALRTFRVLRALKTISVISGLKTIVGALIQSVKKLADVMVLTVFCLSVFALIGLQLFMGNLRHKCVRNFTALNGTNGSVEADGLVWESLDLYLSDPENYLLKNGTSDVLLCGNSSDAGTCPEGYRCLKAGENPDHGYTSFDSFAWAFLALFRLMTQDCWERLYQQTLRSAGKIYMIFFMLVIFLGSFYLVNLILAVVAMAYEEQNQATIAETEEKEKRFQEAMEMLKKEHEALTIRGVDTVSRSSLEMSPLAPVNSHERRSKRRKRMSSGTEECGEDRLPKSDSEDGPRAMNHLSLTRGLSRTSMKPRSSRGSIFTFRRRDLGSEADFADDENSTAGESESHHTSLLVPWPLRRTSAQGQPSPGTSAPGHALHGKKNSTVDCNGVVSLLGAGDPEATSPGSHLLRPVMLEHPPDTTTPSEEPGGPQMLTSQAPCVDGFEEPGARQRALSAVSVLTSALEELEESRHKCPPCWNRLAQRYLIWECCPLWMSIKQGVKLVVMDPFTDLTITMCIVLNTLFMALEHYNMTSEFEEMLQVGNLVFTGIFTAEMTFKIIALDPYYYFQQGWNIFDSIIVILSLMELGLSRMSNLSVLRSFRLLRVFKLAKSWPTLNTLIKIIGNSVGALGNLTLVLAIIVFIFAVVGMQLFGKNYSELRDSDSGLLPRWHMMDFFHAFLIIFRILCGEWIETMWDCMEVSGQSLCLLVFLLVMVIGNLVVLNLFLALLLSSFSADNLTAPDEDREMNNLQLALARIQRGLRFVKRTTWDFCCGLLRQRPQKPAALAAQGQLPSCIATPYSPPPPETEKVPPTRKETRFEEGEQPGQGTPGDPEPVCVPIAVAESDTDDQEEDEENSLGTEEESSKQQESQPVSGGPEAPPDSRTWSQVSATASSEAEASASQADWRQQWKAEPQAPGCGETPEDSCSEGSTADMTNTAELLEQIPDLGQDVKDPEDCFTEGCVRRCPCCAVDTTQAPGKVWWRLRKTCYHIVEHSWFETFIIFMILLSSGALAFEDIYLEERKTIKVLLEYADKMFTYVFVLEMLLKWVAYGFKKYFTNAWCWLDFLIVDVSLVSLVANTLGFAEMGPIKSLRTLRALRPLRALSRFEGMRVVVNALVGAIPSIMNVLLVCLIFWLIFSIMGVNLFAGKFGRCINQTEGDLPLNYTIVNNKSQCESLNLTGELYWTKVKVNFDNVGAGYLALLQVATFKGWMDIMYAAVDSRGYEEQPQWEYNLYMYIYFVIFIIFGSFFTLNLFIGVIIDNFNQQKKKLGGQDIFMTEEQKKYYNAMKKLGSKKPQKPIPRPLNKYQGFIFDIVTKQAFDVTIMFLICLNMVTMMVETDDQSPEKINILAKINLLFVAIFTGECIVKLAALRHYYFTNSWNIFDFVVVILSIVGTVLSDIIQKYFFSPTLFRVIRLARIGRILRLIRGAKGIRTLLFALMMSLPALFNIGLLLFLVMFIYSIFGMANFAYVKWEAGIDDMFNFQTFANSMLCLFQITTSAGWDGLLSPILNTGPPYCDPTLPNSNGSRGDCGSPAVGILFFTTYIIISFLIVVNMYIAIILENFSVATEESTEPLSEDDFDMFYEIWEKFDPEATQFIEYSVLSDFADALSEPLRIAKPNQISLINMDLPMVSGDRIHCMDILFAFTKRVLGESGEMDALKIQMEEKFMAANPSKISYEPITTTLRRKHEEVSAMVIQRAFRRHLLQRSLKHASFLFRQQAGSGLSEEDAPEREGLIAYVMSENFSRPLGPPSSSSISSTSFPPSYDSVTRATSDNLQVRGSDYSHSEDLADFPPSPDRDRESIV
- test name: Whole-cell patch clamp, peak Nav1.5 current in stably transfected HEK cells

[
  {
    "compound": "CCCCN1CCCCC1C(=O)Nc1c(C)cccc1C (stereo not shown) [Bupivacaine, bupivacaine, reference compound]",
    "IC50 / µM": 9.8
  }
]
